- Measurement target: Serine/threonine-protein kinase pim-2 (Homo sapiens) (UniProt Q9P1W9);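 also: reported value is the mean percent inhibition of PIM2, measured in the GSK PKIS kinase inhibitor set screen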
- Sequence (Q9P1W9 whole entry, looked up): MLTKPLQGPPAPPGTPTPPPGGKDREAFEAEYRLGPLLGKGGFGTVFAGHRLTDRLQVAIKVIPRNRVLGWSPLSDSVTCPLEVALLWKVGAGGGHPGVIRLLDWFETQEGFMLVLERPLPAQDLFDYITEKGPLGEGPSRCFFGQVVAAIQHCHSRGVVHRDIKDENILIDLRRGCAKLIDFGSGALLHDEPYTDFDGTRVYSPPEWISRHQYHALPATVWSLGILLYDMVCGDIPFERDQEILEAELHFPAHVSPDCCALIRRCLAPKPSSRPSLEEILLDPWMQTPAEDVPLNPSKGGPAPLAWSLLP
- Run conditions: at 0.1 µM
Experimental readout: inhibition (%)
Write the number in % without appending the unit.

Solved cases below.
Chem smiles	Measurement target	inhibition (%)
COc1cc2c(cc1Nc1nc(Nc3ccsc3C(N)=O)c3cc[nH]c3n1)N(C(=O)CN(C)C)CCC2(C)C	Serine/threonine-protein kinase pim-2 (Homo sapiens) (UniProt Q9P1W9)	2.12
COc1ccc2[nH]c3c4[nH]c5ccc(OC)cc5c4c4c(c3c2c1)C(=O)NC4=O	Serine/threonine-protein kinase pim-2 (Homo sapiens) (UniProt Q9P1W9)	21.4
CCOc1ccc2c(-c3ccnc(Nc4cccc(C(F)(F)F)c4)n3)cnn2n1	Serine/threonine-protein kinase pim-2 (Homo sapiens) (UniProt Q9P1W9)	0.55
COc1ccc(CNC(=O)c2ccc(-c3cc(-c4nnc(C)o4)ccc3C)cc2)cc1	Serine/threonine-protein kinase pim-2 (Homo sapiens) (UniProt Q9P1W9)	2.9
CS(=O)(=O)CCNCc1coc(-c2ccc3ncnc(Nc4ccc(OCc5ccccc5)cc4)c3c2)c1	Serine/threonine-protein kinase pim-2 (Homo sapiens) (UniProt Q9P1W9)	-0.56
COc1cc2ncn(-c3cc(OCc4ccccc4C(F)(F)F)c(C(=O)N(C)C)s3)c2cc1OC	Serine/threonine-protein kinase pim-2 (Homo sapiens) (UniProt Q9P1W9)	-0.26
CCc1nn2ncccc2c1-c1ccnc(NC2CC2)n1	Serine/threonine-protein kinase pim-2 (Homo sapiens) (UniProt Q9P1W9)	0.29
CCn1c(-c2nonc2N)nc2ccccc21	Serine/threonine-protein kinase pim-2 (Homo sapiens) (UniProt Q9P1W9)	-0.12
CNC(=O)c1cncc(/C=C/c2ccccc2Cl)c1	Serine/threonine-protein kinase pim-2 (Homo sapiens) (UniProt Q9P1W9)	0.13
CN(C)CCOc1ccc(-c2nc(-c3ccncc3)c(-c3ccc4c(c3)CC/C4=N\O)[nH]2)cc1	Serine/threonine-protein kinase pim-2 (Homo sapiens) (UniProt Q9P1W9)	-0.23

// sample Fc1ccc(-c2nn3ccccc3c2-c2ccncc2)cc1 , its inhibition was -0.3

// Nc1nc(-c2cccc(Cl)c2)c(-c2ccc3ncccc3n2)s1 : inhibition value = -0.44

====

- Measurement target: Testis-specific serine/threonine-protein kinase 2 (Homo sapiens) (UniProt Q96PF2);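 also: each value is the mean percent inhibition of TSSK2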
- Sequence (Q96PF2 whole entry): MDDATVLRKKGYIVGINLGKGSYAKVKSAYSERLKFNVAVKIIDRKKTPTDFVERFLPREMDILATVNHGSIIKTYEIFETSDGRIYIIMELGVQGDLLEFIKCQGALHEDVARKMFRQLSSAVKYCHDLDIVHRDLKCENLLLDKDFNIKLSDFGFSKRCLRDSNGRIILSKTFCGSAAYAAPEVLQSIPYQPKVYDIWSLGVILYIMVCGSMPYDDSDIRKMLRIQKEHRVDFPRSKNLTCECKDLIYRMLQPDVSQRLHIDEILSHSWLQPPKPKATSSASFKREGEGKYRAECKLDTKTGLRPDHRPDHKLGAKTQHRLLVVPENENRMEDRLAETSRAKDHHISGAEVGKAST
- Run conditions: at 1 µM
Experimental readout: inhibition

Example results:
Chem smiles	Result
COc1ccc(-c2oc3ncnc(N)c3c2-c2ccc(NC(=O)Nc3cc(C(F)(F)F)ccc3F)cc2)cc1	3.45%
COC(=O)Nc1nc2ccc(S(=O)(=O)c3ccc(NC(=O)Nc4cc(C(F)(F)F)ccc4F)cc3)cc2[nH]1	-0.82%
CCNC(=O)O[C@H]1CN[C@H](C#Cc2cc3ncnc(Nc4ccc(OCc5cccc(F)c5)c(Cl)c4)c3s2)C1	-1.23%
CC(C)(CO)CNC(=O)c1ccc2c(c1)/C(=N/Nc1ccc(S(N)(=O)=O)cc1)C(=O)N2	-0.69%
CC(=O)Nc1cccc(C#Cc2cncnc2Nc2ccc(OCc3cccc(F)c3)c(Cl)c2)c1	-1.88%

The compound listed as CNC(=O)c1cccc(C#Cc2cncnc2Nc2ccc(OCc3cccc(F)c3)c(Cl)c2)c1 shows inhibition equal to 2.08%

Please fill in: inhibition reported for CS(=O)(=O)CCNCc1coc(-c2ccc3ncnc(Nc4ccc(OCc5ccccc5)cc4)c3c2)c1 = 2.93%

Given item NS(=O)(=O)c1ccc(N/N=C2\C(=O)Nc3ccc4ncccc4c32)cc1 , the value recorded as its inhibition is 4.1%

Fc1ccc(-c2cc(-c3c[nH]nc3-c3ccccn3)ccn2)cc1 has a reported inhibition of 6.99%

inhibition in this record for COc1ccc2c(-c3ccnc(Nc4cccc(OC(F)(F)F)c4)n3)cnn2n1 : 2.18%

====

- Measurement target: Discoidin domain-containing receptor 2 (Homo sapiens);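 also: reported values are mean percent inhibition of DDR2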
- Sequence (whole entry): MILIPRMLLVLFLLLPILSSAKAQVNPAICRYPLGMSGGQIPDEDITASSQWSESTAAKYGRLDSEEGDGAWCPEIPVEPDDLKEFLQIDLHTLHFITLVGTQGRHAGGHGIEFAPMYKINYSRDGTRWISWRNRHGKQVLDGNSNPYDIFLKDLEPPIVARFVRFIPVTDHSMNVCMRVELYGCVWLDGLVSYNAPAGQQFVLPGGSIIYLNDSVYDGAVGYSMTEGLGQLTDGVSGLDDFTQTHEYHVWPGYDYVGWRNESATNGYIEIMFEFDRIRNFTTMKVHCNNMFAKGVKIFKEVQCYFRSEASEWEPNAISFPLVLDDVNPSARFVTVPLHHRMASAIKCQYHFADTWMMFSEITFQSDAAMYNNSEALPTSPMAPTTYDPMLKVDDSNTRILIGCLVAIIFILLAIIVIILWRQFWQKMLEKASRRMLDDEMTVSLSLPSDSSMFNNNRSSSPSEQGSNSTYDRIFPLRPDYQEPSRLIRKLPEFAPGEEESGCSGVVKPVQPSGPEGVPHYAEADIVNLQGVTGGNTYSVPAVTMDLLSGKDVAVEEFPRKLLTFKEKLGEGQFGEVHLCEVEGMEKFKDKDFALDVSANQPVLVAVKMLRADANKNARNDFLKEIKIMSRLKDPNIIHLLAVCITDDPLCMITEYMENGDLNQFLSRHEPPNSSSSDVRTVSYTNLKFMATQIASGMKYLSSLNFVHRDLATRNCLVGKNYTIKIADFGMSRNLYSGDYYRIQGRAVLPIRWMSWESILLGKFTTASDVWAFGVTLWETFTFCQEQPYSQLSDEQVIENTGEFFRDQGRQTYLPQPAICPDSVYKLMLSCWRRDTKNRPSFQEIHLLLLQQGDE
- Run conditions: at 0.1 µM
Listed compounds paired with reported inhibition
// return the numeric value with its unit appended

Solved cases below.
Chem smiles	inhibition
CCn1c(-c2nonc2N)nc2cnc(Oc3cccc(NC(=O)c4ccc(N(C)C)cc4)c3)cc21	1.4%
Nc1ncc(-c2cccc(S(N)(=O)=O)c2)c2scc(-c3ccc(F)c(Cl)c3)c12	2.61%
COc1ccc2c(-c3ccnc(Nc4cccc(OC(F)(F)F)c4)n3)cnn2n1	1.53%
CS(=O)(=O)CCNCc1ccc(-c2ccc3ncnc(Nc4ccc(OCc5ccccc5)c(C(F)(F)F)c4)c3c2)o1	1.76%
CNC(=O)c1cncc(/C=C/c2ccccc2Cl)c1	-0.31%
COc1cc(N2CCN(C(C)C)CC2)ccc1Nc1nc(Nc2ccc(F)cc2C(N)=O)c2cc[nH]c2n1	0.99%
O=C(Nc1n[nH]c2cc(-c3ccc(F)cc3)ccc12)C1CC1	2.28%
CCN(CC)S(=O)(=O)c1ccc(OC)c(Nc2ncc(-c3ccccc3)o2)c1	7.09%

Next up:
The reported inhibition of the compound c1ccc(-c2nc3n(c2-c2ccc4c(c2)OCO4)CCC3)nc1 was 0.99%

====

- Measurement target: Mitogen-activated protein kinase 14 (Homo sapiens) (UniProt Q16539);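 also: values are mean percent inhibition of p38α kinase from the GSK PKIS published kinase inhibitor set screen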
- Sequence (Q16539 whole entry): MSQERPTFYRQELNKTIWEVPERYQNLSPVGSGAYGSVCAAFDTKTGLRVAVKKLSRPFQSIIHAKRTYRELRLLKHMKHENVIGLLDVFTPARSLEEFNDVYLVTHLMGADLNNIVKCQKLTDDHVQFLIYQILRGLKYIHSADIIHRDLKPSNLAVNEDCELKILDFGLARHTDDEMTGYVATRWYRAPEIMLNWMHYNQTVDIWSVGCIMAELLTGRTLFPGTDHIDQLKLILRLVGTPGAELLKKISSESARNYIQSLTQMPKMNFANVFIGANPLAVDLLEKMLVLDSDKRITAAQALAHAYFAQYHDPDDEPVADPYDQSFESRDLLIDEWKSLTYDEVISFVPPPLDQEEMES
- Run conditions: at 0.1 µM
Experimental readout: inhibition (%)
Use % as the unit, but write only the number.

These recorded examples may help you get a feel for the data.
Chem smiles	Experimental readout	Readout number
c1ccc(COc2ccc(Nc3ncnc4ccc(-c5ccco5)cc34)cc2)cc1	inhibition	2.18
COc1ccc(-c2cc(-c3c[nH]nc3-c3ccccn3)ccn2)cc1	inhibition	7.92
CNC(=O)c1cc(-c2ccc(F)cc2)cc(-c2ccc(S(=O)(=O)N3CCCC3)cc2)c1N	inhibition	4.95

Reading of inhibition for NC(=O)c1sc(-n2cnc3ccc(C(F)(F)F)cc32)cc1OCc1ccccc1Br with Mitogen-activated protein kinase 14 (Homo sapiens) (UniProt Q16539): 8.95

====

# Lookup of reported inhibition keyed by entry
- Measurement target: Tyrosine-protein kinase CSK (Homo sapiens) (UniProt P41240);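 also: value given is the averaged percent inhibition of CSK kinase activity, from the GSK PKIS kinase inhibitor set screening panel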
- Sequence (P41240 2-450 limits assumed): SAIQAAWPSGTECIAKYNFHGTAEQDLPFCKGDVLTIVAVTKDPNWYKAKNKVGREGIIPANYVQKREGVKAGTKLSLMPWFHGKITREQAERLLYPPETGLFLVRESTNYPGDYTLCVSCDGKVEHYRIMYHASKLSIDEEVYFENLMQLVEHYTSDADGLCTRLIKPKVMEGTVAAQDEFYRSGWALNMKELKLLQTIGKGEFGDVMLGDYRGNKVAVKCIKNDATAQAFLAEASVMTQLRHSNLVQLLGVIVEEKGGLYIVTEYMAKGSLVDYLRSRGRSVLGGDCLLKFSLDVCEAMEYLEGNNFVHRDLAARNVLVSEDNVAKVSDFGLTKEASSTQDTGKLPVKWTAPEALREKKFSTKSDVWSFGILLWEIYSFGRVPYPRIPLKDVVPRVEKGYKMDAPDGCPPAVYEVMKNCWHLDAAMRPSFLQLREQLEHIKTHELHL
- Run conditions: at 0.1 µM
Give the value in % but do not write % after it.

Here's what some known entries look like.
Chem smiles	inhibition / %
Nc1nc(-c2ccc(F)cc2)c(-c2ccc3ncccc3n2)s1	5.94
COc1cc(Nc2nccc(Nc3ccc4c(C)n[nH]c4c3)n2)cc(OC)c1OC	21
c1cc(-c2cnn3nc(N4CCOCC4)ccc23)nc(NC2CC2)n1	10.8

Turning to the following molecule.
Measured inhibition of COc1ccc(-c2oc3ncnc(N)c3c2-c2ccc(NC(=O)Nc3cc(C(F)(F)F)ccc3F)cc2)cc1 : 10.9

====

- Measurement target: Serine/threonine-protein kinase MRCK beta (Homo sapiens);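 also: averaged inhibition values against MRCK beta, part of the GSK PKIS profiling dataset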
- Run conditions: at 1 µM
The entries below come with measured inhibition values attached.
Note: unit % is implicit; provide only the numeric part.

Example entries begin here.
Chem smiles	Measurement target	inhibition / %
Cc1ccc2c(-c3ccnc(Nc4ccccc4)n3)c(-c3ccc(F)cc3)nn2n1	Serine/threonine-protein kinase MRCK beta (Homo sapiens)	1.94
COc1ccc(-c2cc3c(N)ncnc3o2)cc1	Serine/threonine-protein kinase MRCK beta (Homo sapiens)	-0.07
CCOc1ccc2c(-c3ccnc(Nc4cccc(C(F)(F)F)c4)n3)cnn2n1	Serine/threonine-protein kinase MRCK beta (Homo sapiens)	-1.84
COc1cc2c(cc1Nc1nc(Nc3ccsc3C(N)=O)c3cc[nH]c3n1)N(C(=O)CN(C)C)CCC2(C)C	Serine/threonine-protein kinase MRCK beta (Homo sapiens)	14.9
Fc1ccc(-c2nn3ccccc3c2-c2ccncc2)cc1	Serine/threonine-protein kinase MRCK beta (Homo sapiens)	4.92

inhibition reading for COc1ccc(-c2nn3ncccc3c2-c2ccnc(Nc3ccc4c(c3)OCCO4)n2)cc1 : 0

What the record says about CCNC(=O)O[C@H]1CN[C@H](C#Cc2cc3ncnc(Nc4ccc(OCc5cccc(F)c5)c(Cl)c4)c3s2)C1 : inhibition is 0.37
